Each recorded value in this set is attributed to patent US20130251724A1.

Reported Kd is given for each of the following binders.
- Study System: T1, Human OSM (human, UniProt P13725 26-221)
- T1 construct: Recombinant human OSM; also called hOSM; human Oncostatin M
- T1 sequence: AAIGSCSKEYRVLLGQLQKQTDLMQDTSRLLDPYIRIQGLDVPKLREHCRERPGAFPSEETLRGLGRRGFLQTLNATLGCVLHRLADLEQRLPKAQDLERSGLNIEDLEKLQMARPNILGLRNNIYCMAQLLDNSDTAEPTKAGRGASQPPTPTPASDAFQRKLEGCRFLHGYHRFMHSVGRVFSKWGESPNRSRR
- Assay Explanation: BIAcore kinetics, transfection supernatant

| Binder | Measure Unit | Kd |
| --- | --- | --- |
| Humanised 10G8 H2L3 (antibody, V domains shown) VH: EVQLVESGGGLVQPGGSLRLSCAASGFTFSNYAMSWVRQAPGKGLEWVATISDGGSFTYYLDNVRGRFTISRDNAKNSLYLQMNSLRAEDTAVYYCARDVGHTTFWYFDVWGSGTLVTVSS VL: DIVMTQSPDSLAVSLGERATINCRASKSVSAAGYNFMHWYQQKPGQPPKLLIYYASNLESGVPDRFSGSGSGTDFTLTISSLQAEDVAVYYCLHSREFPFTFGGGTNVEIK | nM | 0.398 |
| Humanised 10G8 H0L4 (antibody, V domains shown) VH: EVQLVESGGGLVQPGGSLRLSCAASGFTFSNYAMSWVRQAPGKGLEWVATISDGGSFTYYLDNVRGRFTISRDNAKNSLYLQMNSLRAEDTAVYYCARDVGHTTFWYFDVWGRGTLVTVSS VL: DIVMTQSPDSLAVSLGERATINCRASKSVSAAGYNFMHWYQQKPGQPPKVLIYYASNLESGVPDRFSGSGSGTDFTLTISSLQAEDVVVYYCLHSREFPFTFGGGTNVEIK | nM | 0.268 |
| Humanised 10G8 H1L1 (antibody, V domains shown) VH: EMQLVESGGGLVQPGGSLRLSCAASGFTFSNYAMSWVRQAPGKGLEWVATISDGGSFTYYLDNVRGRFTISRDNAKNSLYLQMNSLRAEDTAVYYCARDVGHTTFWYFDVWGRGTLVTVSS VL: DIVMTQSPDSLAVSLGERATINCRASKSVSAAGYNFMHWYQQKPGQPPKVLIYYASNLESGVPDRFSGSGSGTDFTLTISSLQAEDVAVYYCLHSREFPFTFGGGTKVEIK | nM | 0.25 |
